The reported measurements were obtained from ChEMBL document CHEMBL4257540.

target: Lanosterol 14-alpha demethylase (Candida albicans (strain SC5314 / ATCC MYA-2876) (Yeast), UniProt P10613); experiment: Inhibition of CYP51 in Candida albicans SC5314 assessed as ergosterol content at 8 ug/ml after 16 hrs by GC/MS analysis (reference value: 90.3%); set-up: scale not given: the % may be the effect or the level left; conditions: candida albicans sc5314, 16 h
Sequence (P10613 whole entry): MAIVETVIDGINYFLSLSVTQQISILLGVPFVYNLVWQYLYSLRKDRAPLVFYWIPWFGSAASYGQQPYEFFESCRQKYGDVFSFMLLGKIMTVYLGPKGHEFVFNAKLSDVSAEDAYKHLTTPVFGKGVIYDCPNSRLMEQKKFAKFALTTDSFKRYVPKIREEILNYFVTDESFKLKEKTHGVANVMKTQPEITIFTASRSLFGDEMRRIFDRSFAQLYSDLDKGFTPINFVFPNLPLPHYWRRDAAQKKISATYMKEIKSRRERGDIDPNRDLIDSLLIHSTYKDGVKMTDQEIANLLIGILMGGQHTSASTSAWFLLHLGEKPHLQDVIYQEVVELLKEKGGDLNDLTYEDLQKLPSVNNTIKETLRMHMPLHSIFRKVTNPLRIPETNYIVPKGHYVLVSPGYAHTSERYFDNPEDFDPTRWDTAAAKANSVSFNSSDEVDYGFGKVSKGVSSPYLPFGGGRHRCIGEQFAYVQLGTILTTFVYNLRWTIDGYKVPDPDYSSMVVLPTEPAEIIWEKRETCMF
Experimental readout: Activity

# annotated cases, reported Activity shown
# Compound, Activity
data = [
    ("O=C(NCCc1ccncc1)c1cnc2c(F)cccc2c1O", "9.1%"),
    ("COc1cccc(NC(=S)N(CCN(C)C)[C@@H](C)c2ccncc2)c1", "5.8%"),
    ("OC(Cn1cncn1)(Cn1cncn1)c1ccc(F)cc1F [FLUCONAZOLE]", "2.5%"),
]

Now consider a different compound.
Activity reported for this compound Nc1c(/C=N/NC(=O)c2ccncc2)ccc2c1C(=O)c1ccccc1C2=O : 4.6%
